target: AMPK; test: AMPK activation, enzyme-linked immunosorbent assay; format: biochemical; conditions: Table 8, compounds of Table 1
readout: EC50

A selection of reference data follows.
chemical-smiles: O=C(NC1CCN(Cc2ccc(C(F)(F)F)cc2)CC1)c1cc2cc(OC3CCN(c4ccc(C(F)(F)F)cc4)CC3)ccc2o1
EC50: < 100 nM
--
chemical-smiles: O=C(NC1CCNCC1)c1cc2cc(OC3CCN(c4ccc(C(F)(F)F)cc4)CC3)ccc2s1
EC50: 1000 to 5000 nM
--
chemical-smiles: N#Cc1ccc(CN2CCC(NC(=O)c3cc(OC4CCN(c5ccc(C(F)(F)F)cc5)CC4)ccn3)CC2)cc1
EC50: < 100 nM

Task: Hello, I am looking for reported EC50 with AMPK for CC(C)(C)OC(=O)N1CCC(NC(=O)c2cc(OC3CCN(c4ccc(C(F)(F)F)cc4)CC3)ccn2)CC1 . Could you help?
Output: 500 to 1000 nM

* * *

Quick reference: EC50 of the listed items.
molecular target: AMPK; assay: AMPK activation, enzyme-linked immunosorbent assay; type: biochemical; conditions: Table 12, compounds of Table 5

compound: N#Cc1ccc(CN2CCC(NC(=O)c3cccc(O[C@@H]4CCN(Cc5ccc(C#N)c(F)c5)C[C@H]4F)c3)CC2)cc1 [Compound 5-129]
system: AMPK
EC50: < 1000 nM
--
compound: O=C(NC1CCN(Cc2ccccc2)CC1)c1cccc(OC2CCN(c3ccncc3)CC2)c1 [Compound 5-53]
system: AMPK
EC50: 10000 to 20000 nM
--
compound: COc1ccc(CN2CCC(Oc3ccc(C(=O)NCCCNC(=O)OC(C)(C)C)cc3Cl)CC2)cc1 [Compound 5-97]
system: AMPK
EC50: 1000 to 10000 nM
--
compound: O=C(NC1CCN(Cc2ccncc2)CC1)c1cccc(OC2CCN(c3ccc(C(F)(F)F)cc3)CC2)c1 [Compound 5-87]
system: AMPK
EC50: < 1000 nM
--
compound: N#Cc1ccc(CN2CCC(NC(=O)c3ccc(OC4CCN(c5ccc(C#N)cc5)CC4)c(F)c3)CC2)cc1 [Compound 5-45]
system: AMPK
EC50: < 1000 nM
--
compound: O=C(NC1CCN(Cc2ccccc2)CC1)c1ccc(OC2CCN(Cc3ccc(F)cc3)CC2)c(Cl)c1 [Compound 5-19]
system: AMPK
EC50: < 1000 nM

Next compound, EC50 to be filled in.
Task: Hello, I am looking for reported EC50 with AMPK for O=C(NC1CCN(Cc2ccccc2)CC1)c1ccc(OC2CCN(c3ccco3)CC2)c(Cl)c1 [Compound 5-11] . Could you help?
Output: 1000 to 10000 nM

* * *

Quick reference: pEC50 of the listed items.
Biological target: AMPK
Assay: AMPK activation, enzyme-linked immunosorbent assay
Format: biochemical
Conditions: Table 12, compounds of Table 5
Experimental: Compounds of Table 1 were assayed for their ability to activate AMPK using an enzyme-linked immunosorbent assay. Compounds of Table 2 were assayed for their ability to activate AMPK using an enzyme-linked immunosorbent assay. Compounds of Table 3 were assayed for their ability to activate AMPK using an enzyme-linked immunosorbent assay. Compounds of Table 4 were assayed for their ability to activate AMPK using an enzyme-linked immunosorbent assay. […]
pEC50: −log10 of the molar value.

chemical-smiles: O=C(NC1CCN(Cc2ccncc2)CC1)c1ccc(OC2CCN(c3ccc(C(F)(F)F)cc3)CC2)c(F)c1
pEC50: > 6.00
--
chemical-smiles: O=C(NC1CCN(Cc2ccccc2)CC1)c1ccc(OC2CCN(Cc3cccnc3)CC2)c(F)c1
pEC50: 5.00 to 6.00
--
chemical-smiles: O=C(NC1CCN(Cc2ccccc2)CC1)c1ccc(OC2CCN(Cc3ccc(C(F)(F)F)cc3)CC2)c(Cl)c1
pEC50: > 6.00
--
chemical-smiles: N#Cc1ccc(CN2CCC(NC(=O)c3cccc(OC4CCN(Cc5ccc(OC(F)(F)F)cc5)CC4)c3)CC2)cc1
pEC50: < 4.00
--
chemical-smiles: COc1cc(C(=O)NC2CCN(Cc3ccccc3)CC2)ccc1OC1CCN(c2ccco2)CC1
pEC50: 5.00 to 6.00
--
chemical-smiles: CC(C)(C)OC(=O)N1CCC(NC(=O)c2ccc(OC3CCN(c4ccc(C(F)(F)F)cc4)CC3)c(F)c2)CC1
pEC50: > 6.00
--
chemical-smiles: N#Cc1ccc(CN2CCC(NC(=O)c3cccc(OC4CCN(Cc5ccc(Oc6ccccc6)cc5)CC4)c3)CC2)cc1
pEC50: > 6.00
--
chemical-smiles: CS(=O)(=O)c1ccc(CN2CC[C@@H](Oc3cccc(C(=O)NC4CCN(Cc5ccc(C#N)cc5)CC4)c3)[C@H](F)C2)cc1
pEC50: > 6.00

Task: Hello, I am looking for reported pEC50 with AMPK for COc1ccc(CN2CCC(NC(=O)c3cccc(OC4CCN(Cc5ccc(OC)cc5)CC4)c3)CC2)cc1 . Could you help?
Output: > 6.00

Task: Hello, I am looking for reported pEC50 with AMPK for O=C(NC1CCN(Cc2ccc(F)cc2)CC1)c1ccc(OC2CCN(Cc3ccc(Cl)cc3)CC2)c(Cl)c1 . Could you help?
Output: > 6.00

Task: Hello, I am looking for reported pEC50 with AMPK for O=C(NC1CCN(Cc2ccccc2)CC1)c1ccc(OC2CCN(c3ccc(C(F)(F)F)cc3)CC2)c(Cl)c1 . Could you help?
Output: > 6.00

Task: Hello, I am looking for reported pEC50 with AMPK for N#Cc1ccc(CN2CCC(Oc3ccc(C(=O)NC4CCN(Cc5ccccc5)CC4)c(Cl)c3)CC2)cc1 . Could you help?
Output: > 6.00

Task: Hello, I am looking for reported pEC50 with AMPK for COc1ccc(CN2CCC(Oc3ccc(C(=O)NCCCN4CCOCC4)cc3Cl)CC2)cc1 . Could you help?
Output: 4.70 to 5.00

* * *

Quick reference: EC50 of the listed items.
target: AMPK; experiment: AMPK activation, enzyme-linked immunosorbent assay; type: biochemical; conditions: Table 12, compounds of Table 5

Task: Look up EC50: O=C(NC1CCN(Cc2ccccc2)CC1)c1ccc(OC2CCN(c3cccs3)CC2)c(Cl)c1 [Compound 5-10]
Output: 1000 to 10000 nM

Task: Look up EC50: COc1cc(C(=O)NC2CCN(Cc3ccccc3)CC2)ccc1OC1CCN(c2cccs2)CC1 [Compound 5-8]
Output: 1000 to 10000 nM

Task: Look up EC50: N#Cc1ccc(CN2CCC(NC(=O)c3cccc(OC4CCN(c5ccc(C#N)cc5)CC4)c3)CC2)cc1 [Compound 5-115]
Output: < 1000 nM

Task: Look up EC50: N#Cc1ccc(CN2CCC(Oc3c(Cl)cc(C(=O)NC4CCN(Cc5ccccc5)CC4)cc3Cl)CC2)cc1 [Compound 5-77]
Output: < 1000 nM

Task: Look up EC50: COc1ccc(CN2CCC(Oc3ccc(C(=O)N4CCN(C(=O)OC(C)(C)C)CC4)cc3)CC2)cc1 [Compound 5-96]
Output: 1000 to 10000 nM

Task: Look up EC50: CC(C)(C)c1ccc(CN2CCC(Oc3ccc(C(=O)NC4CCN(Cc5ccccc5)CC4)cc3Cl)CC2)cc1 [Compound 5-16]
Output: < 1000 nM

Task: Look up EC50: Cn1cncc1CN1CCC(Oc2ccc(C(=O)NC3CCN(Cc4ccccc4)CC3)cc2Cl)CC1 [Compound 5-5]
Output: 50000 to 100000 nM

Task: Look up EC50: CC(C)(C)OC(=O)N1CCC(NC(=O)c2ccc(OC3CCN(Cc4ccc(C#N)cc4)CC3)cc2)CC1 [Compound 5-78]
Output: < 1000 nM

* * *

target: AMPK; assay: AMPK activation, enzyme-linked immunosorbent assay; format: biochemical; conditions: Table 8, compounds of Table 1
pEC50: −log10 of the molar value.
readout: pEC50

chemical-smiles: N#Cc1ccc(CN2CCC(NC(=O)c3cc4cc(O[C@@H]5CCN(Cc6ccc(Oc7ccc(F)cc7)cc6)C[C@H]5F)ccc4o3)CC2)cc1
pEC50: > 7.00
//
chemical-smiles: CN(C(=O)c1cc2cc(OC3CCN(c4ccc(C(F)(F)F)cc4)CC3)ccc2o1)C1CCN(Cc2ccccc2C#N)CC1
pEC50: 6.30 to 7.00
//
chemical-smiles: CN(C(=O)c1cc2cc(OC3CCN(c4ccc(C(F)(F)F)cc4)CC3)ccc2o1)C1CCN(Cc2cccnc2)CC1
pEC50: > 7.00
//
chemical-smiles: O=C(N[C@H]1CCN(Cc2ccncc2)C1)c1ccc(OC2CCN(c3ccc(C(F)(F)F)cc3)CC2)cn1
pEC50: > 7.00
//
chemical-smiles: CS(=O)(=O)c1ccc(CN2CC[C@@H](Oc3ccc4oc(C(=O)NC5CCN(Cc6ccc(OC(F)(F)F)cc6)CC5)cc4c3)[C@H](F)C2)cc1
pEC50: > 7.00

Task: Look up pEC50: N#Cc1ccc(N2CCC(Oc3ccc(C(=O)NC4CCN(Cc5ccncc5)CC4)nc3)CC2)cc1
Output: 6.30 to 7.00

Task: Look up pEC50: O=C(c1ccc(F)cc1)N1CCC(NS(=O)(=O)c2ccc(OC3CCN(c4ccc(C(F)(F)F)cc4)CC3)nc2)CC1
Output: < 5.00
